# subject-of-test: human ether-à-go-go-related gene (hERG) potassium channel (human, UniProt Q12809)
# Sequence (Q12809 whole entry, looked up): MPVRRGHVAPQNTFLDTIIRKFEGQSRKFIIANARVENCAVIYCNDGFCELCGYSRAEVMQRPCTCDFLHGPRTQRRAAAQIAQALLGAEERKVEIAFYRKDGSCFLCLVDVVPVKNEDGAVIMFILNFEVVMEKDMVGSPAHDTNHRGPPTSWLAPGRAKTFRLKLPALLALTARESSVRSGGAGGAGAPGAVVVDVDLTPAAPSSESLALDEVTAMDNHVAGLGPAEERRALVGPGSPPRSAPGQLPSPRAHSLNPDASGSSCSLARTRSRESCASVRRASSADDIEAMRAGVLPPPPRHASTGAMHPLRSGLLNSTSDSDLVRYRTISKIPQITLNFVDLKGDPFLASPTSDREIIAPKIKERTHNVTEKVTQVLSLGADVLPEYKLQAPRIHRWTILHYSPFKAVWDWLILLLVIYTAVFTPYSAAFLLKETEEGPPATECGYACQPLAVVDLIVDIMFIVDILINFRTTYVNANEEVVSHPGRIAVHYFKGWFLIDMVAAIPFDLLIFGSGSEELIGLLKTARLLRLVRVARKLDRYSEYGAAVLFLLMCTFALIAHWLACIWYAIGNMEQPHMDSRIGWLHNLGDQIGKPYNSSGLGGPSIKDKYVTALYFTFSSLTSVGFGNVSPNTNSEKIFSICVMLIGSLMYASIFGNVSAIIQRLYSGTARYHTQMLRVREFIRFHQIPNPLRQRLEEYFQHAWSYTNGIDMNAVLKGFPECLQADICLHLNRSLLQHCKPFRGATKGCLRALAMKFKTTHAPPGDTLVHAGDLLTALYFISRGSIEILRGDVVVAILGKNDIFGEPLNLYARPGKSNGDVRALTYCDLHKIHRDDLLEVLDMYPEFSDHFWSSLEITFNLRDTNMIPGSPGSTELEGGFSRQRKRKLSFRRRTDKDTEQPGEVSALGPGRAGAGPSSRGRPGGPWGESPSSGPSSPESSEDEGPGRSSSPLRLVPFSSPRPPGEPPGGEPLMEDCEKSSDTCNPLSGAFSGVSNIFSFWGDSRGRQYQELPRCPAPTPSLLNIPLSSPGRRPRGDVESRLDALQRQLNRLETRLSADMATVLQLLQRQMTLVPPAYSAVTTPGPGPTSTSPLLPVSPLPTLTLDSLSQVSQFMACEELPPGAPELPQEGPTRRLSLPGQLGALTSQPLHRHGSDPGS
# test-description: primary screen, population patch clamp on CHO cells stably expressing hERG; higher = less effect of the substance;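 further: peak tail current of the secondary pulse compared with the same well before compound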
Screen size: about 310,000 compounds; about 14,000 (4.5%) showed an effect of 50% or more. The effect is printed as a negative number. The list comes from a sample in which strong results are over-represented; it also holds close analogues and randomly drawn compounds.
attribute-measured: hERG current change (%, negative = inhibition) at 10uM
Hi, when you answer, please include the unit after the number. Thanks!

hERG current change (%, negative = inhibition) at 10uM in this record for O=C(NCC1CCCO1)c1ccc2c(=O)n(CCc3ccccc3)c(=O)[nH]c2c1 (stereo not drawn) : 7.98%

Data point: COc1ccc(CCNC(=O)CNCC2CCCO2)cc1OC.O=C(O)C(=O)O (stereo not drawn) ; hERG current change (%, negative = inhibition) at 10uM = 14.1%

get_value(item= COc1ccc(CCn2c(=N)c(C(=O)NCC3CCCO3)cc3c(=O)n4cccc(C)c4nc32)cc1OC (stereo not drawn) , readout=hERG current change (%, negative = inhibition) at 10uM) returns -80.9%

hERG current change (%, negative = inhibition) at 10uM reported for this compound CC(C)(C)c1ccc(N2C(=N)SCC2=O)cc1 : -0.538%

Entry COc1ccc(CCNC(=O)CCCn2c(SCC#N)nc3ccccc3c2=O)cc1OC ; hERG current change (%, negative = inhibition) at 10uM = -12.7%

Measured hERG current change (%, negative = inhibition) at 10uM, O=C(CSc1nc2ccc(N3CCOCC3)cc2c(=O)n1CCc1ccccc1)NCC1CCCO1 (stereo not drawn) : -47%

---

# subject-of-test: human ether-à-go-go-related gene (hERG) potassium channel (human)
# test-description: primary screen, population patch clamp on CHO cells stably expressing hERG; higher = less effect of the substance
Out of some 310,000 compounds screened, about 14,000 (4.5%) showed an effect of 50% or more. The effect is printed as a negative number. What follows is part of a selection rich in strong results, with near analogues and random picks from the rest.
Exercise: state measured hERG current change (%, negative = inhibition) at 10uM for each of the molecules provided.
Report only the number, with the unit % understood.

Lookup result for COc1ccc(C(=O)N/C(=C/c2cccs2)C(=O)NN)cc1OC ; measured hERG current change (%, negative = inhibition) at 10uM: 13.7

Data point: COc1ccc(C2NC(=O)CCC2[N+](=O)[O-])cc1OC (stereo not drawn) ; hERG current change (%, negative = inhibition) at 10uM = 10.1

What the record says about COc1cc2c(cc1OC)C(C)N(C(=O)C1COc3ccccc3O1)CC2 (stereo not drawn) : hERG current change (%, negative = inhibition) at 10uM is -35.3

Value of hERG current change (%, negative = inhibition) at 10uM reported for the molecule COc1ccccc1-c1ccc(=O)n(CC(=O)NC2CCc3ccccc32)n1 (stereo not drawn) is 5.88

Recorded hERG current change (%, negative = inhibition) at 10uM (molecule O=C(NCC1CCCO1)C(=O)N/N=C/c1c(F)cccc1Cl (stereo not drawn) ): 8.04

The recorded hERG current change (%, negative = inhibition) at 10uM for COc1ccc(C(=O)N/C(=C\c2cccs2)C(=O)N2CCN(C)CC2)cc1OC is -56.4

The reported value for O=C1C2C3C=CC(C3)C2C(=O)N1/N=C/c1cn(Cc2ccc(F)cc2)c2ccccc12 (stereo not drawn) in terms of hERG current change (%, negative = inhibition) at 10uM is 5.84

# hERG current change (%, negative = inhibition) at 10uM of CCOC(=O)N1CCN(C(=O)/C(=C/c2cccs2)NC(=O)c2ccc(OC)c(OC)c2)CC1 = -71.2

hERG current change (%, negative = inhibition) at 10uM reading for CN(C)C=O.COc1ccccc1NC(=O)C1=C(C)NC(=O)NC1c1ccccc1[N+](=O)[O-] (stereo not drawn) : 7.42
